- Experiment description: gradient 5% acetonitrile 3 min, to 50% in 2 min, to 85% in 15 min, held 3 min, 100 µL/min
- Condition notes: column: Zorbax Extend-C18 2.1 x 50 mm; eluents: water / acetonitrile, 0.1% formic acid
Recorded endpoint: RP-LC retention time (s)

1. CC(C)c1nnc(NC(=O)C2CC(=O)N(CCc3c[nH]c4ccc(F)cc34)C2)s1 (stereo not given)	746
2. CCc1ccc(NC(=O)C2CCCN(S(=O)(=O)c3cn(CC)cn3)C2)cc1 (stereo not given)	753
3. CCn1nccc1-c1cccc(-c2noc(-c3ccsc3)n2)c1	1130
4. Cc1c(CC(=O)N2CCC(C(N)=O)CC2)c(=O)oc2c(C)c3occ(C(C)(C)C)c3cc12	821
5. Cc1ccc(C(O)Cn2ccn3nc(-c4ccc(F)cc4)cc3c2=O)cc1C (stereo not given)	1020
6. O=C(NCCCN1CCCC1=O)c1nc(Nc2ccc(F)cc2)c2ccccc2n1	636

1. O=c1c2cc3c(cc2nc(SCc2nc(-c4ccccc4)no2)n1Cc1ccccc1)OCO3
2. CC(C)c1noc(-c2ccnc(-n3cnc(C(=O)N4CCOCC4)c3)c2)n1
Could you tell me which of 1 and 2 has the lower RP-LC retention time reading? Field: selected label. Fill in the label of the entry you choose.
2
(2: 748 s, 1: 1240 s)

* * *

- Experiment description: gradient 5% acetonitrile 3 min, to 50% in 2 min, to 85% in 15 min, held 3 min, 100 µL/min
- Condition notes: column: Zorbax Extend-C18 2.1 x 50 mm; eluents: water / acetonitrile, 0.1% formic acid
Recorded endpoint: RP-LC retention time (s)

Consider the reported RP-LC retention time for these molecules:
1) Cc1ccc(CNC(=O)C2(C)CCCN(C(=O)Nc3ccc(F)c(Cl)c3)C2)cc1 (stereo not given)	1030
2) CCN1CCN(C2CCN(C(=O)c3cc(F)ccc3Cl)CC2)C1=O	705
3) COc1ccc(NC(=O)N2CCCC(CN3CCc4ccccc4C3)C2)cc1OC (stereo not given)	628

a. O=C(Cn1nc(-c2ccccc2)c2cc(Cl)ccc21)N1CCN(c2ccccn2)CC1
b. Cc1cc(C)c(NC(=O)C2CCCN(S(=O)(=O)c3cc(-c4noc(C)n4)cs3)C2)c(C)c1 (stereo not given)
c. NC(=O)C1CCN(c2ncnc(N)c2[N+](=O)[O-])CC1
# sort list by recorded RP-LC retention time, greatest to least Labels, ranked as asked.
b, a, c
(b: 1110 s, a: 757 s, c: 512 s)

a. O=C(C1CCN(S(=O)(=O)c2ccc(-c3noc(/C=C/c4cccs4)n3)cc2)CC1)N1CCCC1
b. CCOc1ccc(NC(=O)Cn2nc3n(c2=O)CCCC3)cc1
API: POST /compare with a and b ; response names the item with higher RP-LC retention time. Field: selected label. Fill in the label of the entry you choose.
a
(a: 1050 s, b: 655 s)

* * *

- Experiment description: gradient 5% acetonitrile 3 min, to 50% in 2 min, to 85% in 15 min, held 3 min, 100 µL/min
- Condition notes: column: Zorbax Extend-C18 2.1 x 50 mm; eluents: water / acetonitrile, 0.1% formic acid
Recorded endpoint: RP-LC retention time (s)

1) Nc1ccc2ncnc(N3CCCCC3)c2c1	593
2) Cn1nc(-c2ccccc2)cc1C(=O)NCCn1nc(-c2ccc(Cl)cc2)ccc1=O	836
3) CCc1nc2ccccc2c(=O)n1Cc1noc(-c2cccc(OC)c2)n1	998
4) Cc1cccc(-c2nnc(-c3nc(NCCc4cnc[nH]4)c4ccccc4n3)o2)c1	672
5) Cc1nc2ccn(Cc3cccnc3)c(=O)c2cc1C(=O)NCCCc1ccco1	625
6) COc1ccc(CNC(=O)C2CCCN(c3cc(=O)n(C)c(=O)n3C)C2)cc1 (stereo not given)	663
7) Cc1c(CCC(=O)NCc2cccnc2)c(=O)n2nc(-c3ccc(Cl)cc3)nc2n1C	632
8) O=C(c1noc2c1CCCCC2)N1CCN(c2ccccn2)CC1	632
9) Cc1nnc(-c2coc(S(=O)(=O)N3CCCCCC3)c2)o1	824
10) COC(=O)c1c(C)[nH]c(C(=O)N2CCCC(C(=O)N3CCCCCC3)C2)c1C (stereo not given)	723

* * *

- Experiment description: gradient 5% acetonitrile 3 min, to 50% in 2 min, to 85% in 15 min, held 3 min, 100 µL/min
- Condition notes: column: Zorbax Extend-C18 2.1 x 50 mm; eluents: water / acetonitrile, 0.1% formic acid
Recorded endpoint: RP-LC retention time (s)

1. Cc1nn(-c2nc(-c3ccccc3)cs2)c(C)c1CC(=O)Nc1ccc(F)cc1	1130
2. CC1CCCN(CC2CCN(S(=O)(=O)c3cc(F)cc(F)c3)CC2)C1 (stereo not given)	681
3. CCOC(=O)C1CCN(C(=O)c2n[nH]c(=O)c3ccccc23)CC1	677
4. CCOc1ccc(-c2ccc(=O)n(CCc3nc(-c4ccc(F)cc4)no3)n2)cc1	815
5. Cc1ccc(NC(=O)N2CCN(c3cc(C)nc(N4CCOCC4)n3)CC2)c(C)c1	666
6. COCCNC(=O)C1CCCN(C(=O)c2[nH]c(C)cc2C)C1 (stereo not given)	644
7. O=C(CCc1c(-c2ccc(Br)cc2)nc2ccccn12)NCc1ccc(F)cc1	701
8. CCOc1ccc(NC(=O)Cn2ccc3ccc(-c4nnc(C)o4)cc32)cc1	804
9. CC(C)C(=O)Nc1ccc(C2(C(=O)NCc3ccco3)CCCCC2)cc1	889
10. CCCN1C(=O)Cc2ccccc2C1C(=O)NCc1ccccc1Br (stereo not given)	831

* * *

- Experiment description: gradient 5% acetonitrile 3 min, to 50% in 2 min, to 85% in 15 min, held 3 min, 100 µL/min
- Condition notes: column: Zorbax Extend-C18 2.1 x 50 mm; eluents: water / acetonitrile, 0.1% formic acid
Recorded endpoint: RP-LC retention time (s)

Consider the reported RP-LC retention time for these compounds:
1) O=C(NCCO)C(=O)NCC1(c2ccccc2)CCCC1	715
2) CNC(=O)[C@@H]1CN(C(=O)c2cc(C3CC3)[nH]n2)C[C@H]1c1n[nH]c(C)n1	577

A. Cc1nc2c(NC(=O)NCc3ccccc3)cccn2n1
B. CCCc1nc(-c2ccccc2)oc1CC(=O)Nc1ccc(Cl)cc1C
API: POST /compare with A and B ; response names the item with higher RP-LC retention time. Field: selected label. Fill in the label of the entry you choose.
B
(B: 1090 s, A: 707 s)

* * *

- Experiment description: gradient 5% acetonitrile 3 min, to 50% in 2 min, to 85% in 15 min, held 3 min, 100 µL/min
- Condition notes: column: Zorbax Extend-C18 2.1 x 50 mm; eluents: water / acetonitrile, 0.1% formic acid
Recorded endpoint: RP-LC retention time (s)

1) CC1CCN(S(=O)(=O)c2cccn(CC(=O)NCCC3=CCCCC3)c2=O)CC1	878
2) COc1ccc(-c2c(C(=O)Nc3ccc(C(C)=O)cc3)nc3ccccn23)cc1	939
3) COc1ccc(Cl)cc1NC(=O)N1CCC(n2cnc3cc(F)ccc3c2=O)CC1	895
4) COCCOC1CCC12CCN(C(=O)c1cc(C)oc1C)CC2 (stereo not given)	811
5) O=C(NCCCc1ccccc1)C1CCN(c2nnc3ccc(Cl)cn23)CC1	760

* * *

- Experiment description: gradient 5% acetonitrile 3 min, to 50% in 2 min, to 85% in 15 min, held 3 min, 100 µL/min
- Condition notes: column: Zorbax Extend-C18 2.1 x 50 mm; eluents: water / acetonitrile, 0.1% formic acid
Recorded endpoint: RP-LC retention time (s)

1) COc1ccccc1-c1csc(NC(=O)Cc2csc(C)n2)n1	881
2) S=c1cc(N2CCSCC2)[nH]cn1	602
3) Cc1ccc2c(c1)N(C)N=C(C(=O)N1CCOCC1)S2(=O)=O	669
4) CCc1c(C(=O)O)nnn1Cc1ccccc1	701
5) Cc1ccccc1Sc1nccnc1SCC(=O)N1CCN(c2ccccn2)CC1	715
6) O=C(Nc1ccccc1C(F)(F)F)c1cnc(-c2ccccc2)nc1-c1ccncc1	915
7) COc1cc(Br)cc(CC2C(=O)Nc3ccccc32)c1OC (stereo not given)	932
8) COc1cc(CNC(=O)c2ccc3c(c2)N(C)C(=O)C2CCCCN32)cc(OC)c1OC (stereo not given)	790

A. CCCN1C(=O)C(CC(=O)N2CCN(C)CC2)Sc2ncccc21 (stereo not given)
B. COc1cc(OC)cc(-c2nc(-c3cn(-c4cccc(F)c4)nn3)no2)c1
Could you tell me which of A and B has the lower RP-LC retention time reading? Field: selected label. Fill in the label of the entry you choose.
A

* * *

- Experiment description: gradient 5% acetonitrile 3 min, to 50% in 2 min, to 85% in 15 min, held 3 min, 100 µL/min
- Condition notes: column: Zorbax Extend-C18 2.1 x 50 mm; eluents: water / acetonitrile, 0.1% formic acid
Recorded endpoint: RP-LC retention time (s)

1) CCOc1ccc(NC(=O)N2CCc3cn(C)c4cccc(c34)C2)cc1	913
2) Cc1ccc(S(=O)(=O)NCCc2cn(CC(C)C)c3ncccc23)cc1	921
3) CCCCN1C(=O)C(CC(=O)NCCC)Sc2ncccc21 (stereo not given)	750
4) O=C(Nc1cccc(F)c1)N1CCN(Cc2nc3ccc(Cl)cc3o2)CC1	784
5) COc1ccc(OC)c(NC(=O)Cn2nc(N3CCC(C)CC3)c3ccccc3c2=O)c1	1180

A. Cc1ccsc1C(=O)N1CCC(N2C(=O)C(OCC3CC3)C23CCCCC3)CC1 (stereo not given)
B. O=c1cc(-c2ccccc2)nc2n1CCN2Cc1ccncc1
Could you tell me which of A and B has the lower RP-LC retention time reading? Field: selected label. Fill in the label of the entry you choose.
B
(B: 589 s, A: 1020 s)

A. CCn1c(=O)c2ccccc2n(Cc2nc(-c3ccc(F)cc3)no2)c1=O
B. CCOC(=O)c1nc(NCC2CCN(Cc3cccc(F)c3)CC2)c2ccccc2n1
Could you tell me which of A and B has the lower RP-LC retention time reading? Field: selected label. Fill in the label of the entry you choose.
B
(B: 605 s, A: 1010 s)
